# ASSAY TARGET: Streptavidin (Streptomyces avidinii)
# EXPERIMENTAL PROTOCOL: streptavidin binders on small-molecule microarray, primary screen, artefact control for SMM compound annotation, biophysical, 635/667 nm fluorescence (AID 1147);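 also: signal reflects streptavidin binding to arrayed compounds as a control protein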
# CONDITION CONTEXT: streptavidin binding, higher = more signal
PARAMETER: composite z-score

Observe how each entry below is paired with its result.
{"columns": ["COMPOUND", "PARAMETER", "RESULT"],
 "data": [
  ["COCCOC(=O)N1C(=O)[C@@]2(c3cc(C#CC4(O)CCCCCC4)ccc31)[C@H](c1ccccc1OCCO)N1[C@H](c3ccccc3)[C@H](c3ccccc3)OC(=O)[C@H]1[C@@H]2C(=O)Nc1nc2ccccc2s1", "composite z-score", 0.16],
  ["C=CCC1(CC=C)C[C@H]2CO[C@H](c3ccc(OC)cc3)N2C1=O", "composite z-score", -0.147],
  ["COc1ccc(CCNC(=O)[C@@]2(Sc3ccc(C)cc3)CC(=O)N(Cc3ccccc3)[C@@H]2c2ccc(CO)cc2I)cc1", "composite z-score", -0.225],
  ["C=C(/C(=C/C[C@H](OC(C)=O)c1cccc(OCCO)c1)c1cc(C(=O)OC)ccc1OC)C(C)C", "composite z-score", -0.948],
  ["CCCNC(=O)[C@@]1(Sc2ccc(C)cc2)CC(=O)N(Cc2cc(C(F)(F)F)cc(C(F)(F)F)c2)[C@@H]1c1ccc(CO)cc1I", "composite z-score", -0.179],
  ["CCCCCN1CC=CC23O[C@@H]4/C=C\\CCC(C)OC(=O)C4[C@H]2C(=O)N(CCCO)[C@@H]3C1=O (some centres not stated)", "composite z-score", -0.67],
  ["C=C(COC)C(=O)CC[C@H](OC(=O)c1ccccc1-c1ccccc1C(=O)O)c1ccccc1OCCO", "composite z-score", 0.0456],
  ["CC(=O)NCCCC[C@@H]1NC(=O)[C@@H]2C[C@H](C(=O)O)[C@H](c3cccc(OCCO)c3)N2C1=O", "composite z-score", 0.397]
]}

Recorded composite z-score for O=C1c2ccccc2[C@@]2(Cc3ccccc3N(CC(F)(F)F)C2=O)[C@H](c2ccc(CO)cc2)N1Cc1ccccc1C(F)(F)F with Streptavidin (Streptomyces avidinii), please?
-1.04

Proceed to C=CCNC(=O)[C@@H]1[C@H]2C(=O)O[C@H](c3ccccc3)[C@H](c3ccccc3)N2[C@H](c2ccc(O)cc2)[C@@]12C(=O)N(C(=O)OCCOC)c1ccc(C#Cc3ccc(OC)cc3)cc12
0.256

Proceed to C=C(COC)/C(=C/C[C@H](OC(C)=O)c1ccc(CO)o1)c1cnc2ccccc2c1
1.45

Proceed to CC(C)C[C@@H]1NC(=O)[C@@]23C(=O)N[C@@H](Cc4ccccc4)C2[C@H](C)[C@@]2(C)O[C@H]2C3/C=C/CC/C=C/CNC(=O)[C@@H](C)NC1=O (some centres not stated)
0.0315

Proceed to CO[C@H]1O[C@H](CO)[C@@H](OC(=O)CCc2ccccc2)[C@@H]2OC(=O)[C@H](Cc3ccccc3)C/C=C/C[C@@H](Cc3ccccc3)C(=O)O[C@@H]12
-0.804

Proceed to CCOC(=O)C[C@H]1[C@H](OC(=O)c2ccc(-c3ccccc3)cc2)[C@@H](NC(=O)C2CCCCC2)c2cc(OCCCO)ccc2N1C(=O)c1ccc2ccccc2n1
0.391

Proceed to C=CCN1C(=O)[C@@]2(O[C@@H](CCn3cc(CCO)nn3)[C@H]([Si](C)(C)c3ccc(OC)cc3)[C@H]2C)c2cc(N3C(=O)c4cccc5cccc3c45)ccc21
0.854

====

# EXPERIMENTAL PROTOCOL: inducers of Cryptococcus neoformans cell lysis, dose response, AK release luminescence, cherry-picks (AID 687000);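 also: luminescent detection of adenylate kinase leaking from lysed yeast; 0% = median neutral control signal and 100% = double that signal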
# CONDITION CONTEXT: C. neoformans lysis, adenylate kinase release luminescence, 4 h, 100% = twice the neutral-control signal; series mostly up to 15 µM
Entries with a potency or affinity are not part of this list. The source made the active and inactive calls.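 The calls were made as follows: active = fitted dose curve reaches 40% lysis signal rise at or below the highest valid concentration tested for that sample; inconclusive = flat fit between 30% and 70%, or poor curve fit; inactive = signal falls, stays flat within 30%, or no crossing.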
PARAMETER: outcome

Observe how each entry below is paired with its result.
{"columns": ["MOLECULE", "RESULT"],
 "data": [
  ["COc1ccc(S(=O)(=O)Nc2ccc3c(c2)C(=O)N([C@@H](C)CO)C[C@H](C)[C@@H](CN(C)C)OCCCC[C@H](C)O3)cc1", "inactive"],
  ["CNC[C@@H]1Oc2ccc(NS(=O)(=O)c3ccc(Cl)cc3)cc2C(=O)N([C@H](C)CO)C[C@H]1C", "inactive"],
  ["Cc1c(C(=O)NC(=S)Nc2ccc(N3CCOCC3)cc2)cccc1[N+](=O)[O-]", "inactive"],
  ["C[C@@H]1CN([C@@H](C)CO)C(=O)c2cc(NC(=O)Nc3ccc4c(c3)OCO4)ccc2O[C@H]1CN(C)Cc1ccc(Oc2ccccc2)cc1", "inactive"],
  ["C[C@H](CO)N1C[C@H](C)[C@H](CN(C)C(=O)c2ccccn2)Oc2ncc(-c3ccccc3)cc2C1=O", "inactive"],
  ["O=C(CN(c1ccccc1)S(=O)(=O)c1ccc(F)cc1)N1CCCCCC1", "inactive"]
]}

Entry C[C@@H](NC(=O)C[C@@H]1CC[C@H]2[C@@H](COC[C@@H](O)CN2Cc2cc(F)ccc2F)O1)c1ccccc1 has what outcome?
inactive

Proceed to CC(C)NC(=O)N(C)C[C@H]1Oc2c(NC(=O)C3CCCCC3)cccc2C(=O)N([C@H](C)CO)C[C@H]1C
inactive

Proceed to Cc1ccc(NC(=O)C2(C)CCN2C(=O)C2CCCCC2)cc1C (stereo not given)
inactive

Proceed to COc1ccc(-n2ncc3c(SCC(=O)OC(C)C)ncnc32)cc1
inactive

Proceed to COc1cccc(S(=O)(=O)N(C)C[C@@H]2Oc3ncc(-c4cccc(F)c4)cc3C(=O)N([C@H](C)CO)C[C@@H]2C)c1
inactive

Proceed to Cc1ccc(S(=O)(=O)N[C@@H]2CCCN(Cc3cccc(OCCO)c3)C2)cc1
inactive

Proceed to C[C@H]1CN([C@@H](C)CO)C(=O)Cc2cc(NS(=O)(=O)c3ccc(F)cc3)ccc2O[C@@H]1CN(C)S(=O)(=O)c1ccc(F)cc1
inactive

Proceed to Cc1ccccc1S(=O)(=O)N[C@@H]1CC[C@H](CCNS(=O)(=O)c2cccc(F)c2)O[C@H]1CO
inactive

====

# EXPERIMENTAL PROTOCOL: E. coli acrAB mutant growth effects, primary screen, E. coli filamentation inducers, strain DRC39, OD650, 24 h (AID 1178);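 also: growth measured as culture turbidity by optical density at 650 nm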
# CONDITION CONTEXT: higher = more signal, called active from +8 up or from −8 down
z-score listing for selected compounds.
In your answer, state the number alone without any accompanying words.

Observe how each entry below is paired with its result.
{"columns": ["COMPOUND", "z-score"],
 "data": [
  ["C=C(CCCC)/C(=C/C[C@@H](OC(=O)c1ccncc1)c1ccc(OCCO)cc1)c1cnc2ccccc2c1", 1],
  ["CC(C)CCC[C@@H](C)[C@H]1CC[C@@]2(C)C3=C(CC[C@]12C)[C@@]1(C)CC[C@H](OC(=O)CCl)C(C)(C)C1CC3 (some centres undefined)", 2.93],
  ["C=CC[C@]1(C(=O)N(C)C)N=C(c2ccc(OCCCO)cc2)O[C@H]1c1ccccc1CN=[N+]=[N-]", 1.53]
]}

Now for another entry.
Entry [N-]=[N+]=NCc1ccccc1C[C@@]1(C(=O)O)N=C(c2ccc(OCCCO)cc2)O[C@@H]1c1ccccc1 has what z-score?
2.63

====

# EXPERIMENTAL PROTOCOL: E. coli acrAB mutant growth effects, primary screen, E. coli filamentation inducers, strain DRC39, OD650, 24 h (AID 1178);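 also: growth measured as culture turbidity by optical density at 650 nm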
# CONDITION CONTEXT: higher = more signal, called active from +8 up or from −8 down
Active and inactive are the calls of the source.
PARAMETER: z-score

Entry C=CCNC(=O)[C@@H]1[C@H]2C(=O)O[C@H](c3ccccc3)[C@H](c3ccccc3)N2[C@H](c2ccc(O)cc2)[C@@]12C(=O)N(C(=O)OCCOC)c1ccc(C#Cc3ccc(OC)cc3)cc12 has what z-score?
0.236 (inactive)

Proceed to COc1ccc(C(=O)Nc2cccc(CN3C(=O)[C@@]4(O[C@@H](CCO)[C@H]([Si](C)(C)c5ccc(OC)cc5)[C@H]4C)c4ccccc43)c2)cc1
2.75 (inactive)

====

max activity listing for selected compounds.
# EXPERIMENTAL PROTOCOL: NIH:OVCAR-3 ovarian cancer cell cytotoxicity, dose response, PAX8 inhibitor project, plate reader, dry powder samples (AID 743044)
# CONDITION CONTEXT: NIH:OVCAR-3 ovarian cancer cell viability; at 35 µM, stronger effect = lower value unless noted
Potency and affinity values are given separately. Results filed as inconclusive are left out. Active and inactive are the calls of the source. How the calls were made is not given here.

Observe how each entry below is paired with its result.
{"columns": ["SMILES NOTATION", "PARAMETER", "RESULT"],
 "data": [
  ["C[C@@H]1CN([C@H](C)CO)C(=O)c2cc(NS(=O)(=O)c3ccc(F)cc3)ccc2O[C@@H]1CN(C)Cc1ccc(C(F)(F)F)cc1", "max activity", "-4.85% (inactive)"],
  ["C[C@H]1CCCCO[C@H](CN(C)C(=O)NC2CCCCC2)[C@@H](C)CN([C@@H](C)CO)C(=O)c2cc(NC(=O)Nc3ccc(C(F)(F)F)cc3)ccc2O1", "max activity", "-30.4% (inactive)"],
  ["C[C@@H]1CCCCO[C@@H](CN(C)Cc2ccccc2)[C@@H](C)CN([C@H](C)CO)C(=O)c2cc(NC(=O)Nc3ccc(C(F)(F)F)cc3)ccc2O1", "max activity", "-13.2% (inactive)"],
  ["C[C@@H]1CCCCO[C@@H](CN(C)Cc2ccc(C(F)(F)F)cc2)[C@H](C)CN([C@@H](C)CO)C(=O)c2cc(NS(=O)(=O)c3ccc(F)cc3)ccc2O1", "max activity", "-6.08% (inactive)"],
  ["C[C@H]1CN([C@@H](C)CO)S(=O)(=O)c2ccc(C#Cc3ccccc3F)cc2O[C@H]1CN(C)C(=O)c1ccc2c(c1)OCO2", "max activity", "-13% (inactive)"],
  ["C[C@@H]1CN([C@@H](C)CO)C(=O)Cc2cc(NC(=O)Nc3ccccc3)ccc2O[C@H]1CN(C)Cc1ccc(Oc2ccccc2)cc1", "max activity", "-64.8% (inactive)"]
]}

Entry Cc1ccc(S(=O)(=O)Nc2ccc3c(c2)C(=O)N([C@@H](C)CO)C[C@@H](C)[C@@H](CN(C)Cc2ccc(Cl)c(Cl)c2)OCCCC[C@@H](C)O3)cc1 has what max activity?
-8.95% (inactive)
